src = patent EP4585599A1

assay explanation: cells
setup conditions: Homo sapiens, DLD-1, 240 h, read-out: Cell viability assay IC50 (nM), CTG on Day 10; cell line not given (method: DLD1 and DLD1^-/- cells)

compound: COc1cnc(Cl)cc1-c1cc(C)ncc1C(=O)Nc1nc2ncc(CC(C)(C)O)cc2s1
IC50: 100 to 500 nM

compound: COc1cnc(Cl)cc1-c1cc(C)ncc1C(=O)Nc1nc2ncc(C3=CCC(N)CC3)cc2s1 (stereo not shown)
IC50: < 100 nM

compound: COc1cnc(Cl)cc1-c1cc(C)ncc1C(=O)Nc1nc2cnc(-c3c(C)cnn3C)cc2s1
IC50: < 100 nM

compound: COc1cnc(Cl)cc1-c1cc(C)ncc1C(=O)Nc1nc2ncc(N3CCC(N(C)C)CC3)cc2s1
IC50: 100 to 500 nM

compound: COc1cnc(Cl)cc1-c1cc(C)ncc1C(=O)Nc1nc2ncc(C3=COCCO3)cc2s1
IC50: < 100 nM

compound: COc1cnc(Cl)cc1-c1cc(C)ncc1C(=O)Nc1nc2ncc(NS(C)(=O)=O)cc2s1
IC50: > 1000 nM

compound: COc1cnc(Cl)cc1-c1cc(C)ncc1C(=O)Nc1nc2cnc(C3=CC[C@@H](O)CC3)cc2s1
IC50: < 100 nM

compound: COc1cnc(Cl)c(F)c1-c1cc(C)ncc1C(=O)Nc1nc2ccc(N3CCC(O)CC3)nc2s1
IC50: < 100 nM

compound: COc1cnc(Cl)c(F)c1-c1cc(C)ncc1C(=O)Nc1nc2ncc(-c3ccn(C)n3)cc2s1
IC50: 100 to 500 nM

compound: COc1cnc(Cl)cc1-c1cc(C)ncc1C(=O)Nc1nc2ncc(N3CC4CC(O)CC4C3)cc2s1 (stereo not shown)
IC50: 100 to 500 nM

compound: COc1cnc(Cl)cc1-c1cc(C)ncc1C(=O)Nc1nc2ccc(C3=CCC(O)CC3)nc2[nH]1 (stereo not shown)
IC50: > 1000 nM

compound: COc1cnc(Cl)cc1-c1cc(C)ncc1C(=O)Nc1nc2ncc(N3CCC(NC(=O)C4(C)CC4)CC3)cc2s1
IC50: 100 to 500 nM

compound: COc1cnc(Cl)cc1-c1cnccc1C(=O)Nc1nc2ccc(C3=CCC(O)CC3)nc2s1 (stereo not shown)
IC50: 500 to 1000 nM

compound: COc1cnc(Cl)cc1-c1cc(C)ncc1C(=O)Nc1nc2ncc(N3CCCC(O)CC3)cc2s1 (stereo not shown)
IC50: 500 to 1000 nM

compound: COc1cnc(Cl)cc1-c1cc(C)ncc1C(=O)Nc1nc2ncc(C3=CCOCC3)cc2s1
IC50: < 100 nM

compound: COc1cnc(Cl)cc1-c1cc(C)ncc1C(=O)Nc1nc2ccc(N3CCC(C)(O)CC3)cc2s1
IC50: 100 to 500 nM

====

assay explanation: Mouse PK assay after oral administration
setup conditions: mice, oral, administration dose 30 mg/kg
Answer rule not met if Time to peak is under 1 h, and rule met if it is 1 h or more.

input smiles: COc1cnc(C(F)F)cc1-c1cc(C)ncc1C(=O)Nc1nc2cnc(-c3c(C)nnn3C)cc2s1
class assignment: rule met
//
input smiles: COc1cnc(Cl)cc1-c1cc(C)ncc1C(=O)Nc1nc2cnc(-c3c(C)nnn3C)cc2s1
class assignment: rule met
//
input smiles: COc1cnc(Cl)c(F)c1-c1cc(C)ncc1C(=O)Nc1nc2cnc(-c3c(C)nnn3C)cc2s1
class assignment: rule not met
//
input smiles: COc1cnc(Cl)cc1-c1cc(C)ncc1C(=O)Nc1nc2cnc(-c3c(C)nnn3C)c(F)c2s1
class assignment: rule not met
//
input smiles: COc1cnc(C(F)F)cc1-c1cc(C)ncc1C(=O)Nc1nc2cnc(-c3c(C)noc3C)cc2s1
class assignment: rule met
//
input smiles: COc1cnc(Cl)c(F)c1-c1cc(C)ncc1C(=O)Nc1nc2cnc(-c3c(C)nnn3C)c(F)c2s1
class assignment: rule not met

====

assay explanation: cells
setup conditions: Homo sapiens, DLD-1, 240 h, read-out: Cell viability assay IC50 (nM), CTG on Day 10; cell line not given (method: DLD1 and DLD1^-/- cells)
IC50: recorded values

molecule: COc1cnc(Cl)cc1-c1cc(C)ncc1C(=O)Nc1nc2ncc(C3CCOCC3)cc2s1
IC50: < 100 nM
//
molecule: COc1cnc(Cl)cc1-c1cc(C)ncc1C(=O)Nc1nc2ccc(C3CCN(C)CC3)nc2s1
IC50: 500 to 1000 nM
//
molecule: COc1cnc(Cl)cc1-c1cc(C)ncc1C(=O)Nc1nc2ncc(-c3ccnc(N4CCN[C@H](C)C4)c3)cc2s1
IC50: 100 to 500 nM
//
molecule: COc1cnc(Cl)cc1-c1cc(C)ncc1C(=O)Nc1nc2ccc(-c3ccncc3Cl)nc2s1
IC50: 100 to 500 nM
//
molecule: COc1cnc(Cl)cc1-c1cc(C)ncc1C(=O)Nc1nc2ncc(N3CCCC(O)C3)cc2s1 (stereo not drawn)
IC50: 100 to 500 nM
//
molecule: COc1cnc(Cl)cc1-c1cc(C)ncc1C(=O)Nc1nc2ccc([C@H]3CC[C@H](O)CC3)nc2s1
IC50: 100 to 500 nM
//
molecule: COc1cnc(Cl)c(F)c1-c1cc(C)ncc1C(=O)Nc1nc2ccc(C3CCC(O)CC3)cc2s1 (stereo not drawn)
IC50: < 100 nM
//
molecule: COc1cnc(Cl)cc1-c1cc(C)ncc1C(=O)Nc1nc2ccc(-c3ccn(C)n3)nc2s1
IC50: 100 to 500 nM
//
molecule: COc1cnc(Cl)cc1-c1cc(C)ncc1C(=O)Nc1nc2cc(C3CCC(O)CC3)cnc2s1 (stereo not drawn)
IC50: > 1000 nM
//
molecule: COc1cnc(Cl)cc1-c1cc(C)ncc1C(=O)Nc1nc2ncc(-c3cnc4[nH]ccc4c3)cc2s1
IC50: 100 to 500 nM
//
molecule: COc1cnc(Cl)cc1-c1cc(C)ncc1C(=O)Nc1nc2ncc(C3=CCC(O)CC3)cc2s1 (stereo not drawn)
IC50: < 100 nM
//
molecule: [2H]C([2H])([2H])c1cc(-c2cc(Cl)ncc2OC)c(C(=O)Nc2nc3cnc(C4=CCC(O)CC4)cc3s2)cn1 (stereo not drawn)
IC50: < 100 nM
//
molecule: COc1cnc(Cl)cc1-c1cc(C)ncc1C(=O)Nc1nc2ncc(C3=CC(O)CC3)cc2s1 (stereo not drawn)
IC50: < 100 nM
//
molecule: COc1cnc(Cl)cc1-c1cc(C)ncc1C(=O)Nc1nc2ncc(N3CCC(CO)C3)cc2s1 (stereo not drawn)
IC50: 100 to 500 nM
//
molecule: COc1cnc(Cl)cc1-c1cc(C)ncc1C(=O)Nc1nc2ncc(N3CCC(NC(C)=O)CC3)cc2s1
IC50: 100 to 500 nM
//
molecule: COc1cnc(Cl)cc1-c1cc(C)ncc1C(=O)Nc1nc2ncc(C3=CCC4(CC3)CC(O)C4)cc2s1 (stereo not drawn)
IC50: < 100 nM
//
molecule: COc1cnc(Cl)cc1-c1cc(C)ncc1C(=O)Nc1nc2c(F)cc(N3CCC(O)CC3)cc2s1
IC50: < 100 nM
//
molecule: COc1cnc(Cl)cc1-c1cc(C)ncc1C(=O)Nc1nc2ncc(-c3ccc(P(C)(C)=O)cc3)cc2s1
IC50: 500 to 1000 nM
//
molecule: COc1cnc(Cl)cc1-c1cc(C)ncc1C(=O)Nc1nc2ncc(N3CCC(OC)CC3)cc2s1
IC50: 100 to 500 nM
//
molecule: COc1cnc(Cl)cc1-c1cc(C)ncc1C(=O)Nc1nc2ncc(N3CCC(O)C(C)C3)cc2s1 (stereo not drawn)
IC50: < 100 nM
//
molecule: COc1cnc(Cl)cc1-c1cc(C)ncc1C(=O)Nc1nc2ncc(N3CCS(=O)(=O)CC3)cc2s1
IC50: 500 to 1000 nM
//
molecule: COc1cccc(F)c1-c1cc(C)ncc1C(=O)Nc1nc2ccc([C@H]3CC[C@H](O)CC3)nc2s1
IC50: > 1000 nM
//
molecule: COc1cnc(Cl)cc1-c1cncnc1C(=O)Nc1nc2ccc(C3=CCC(O)CC3)nc2s1 (stereo not drawn)
IC50: 500 to 1000 nM
//
molecule: COc1cnc(Cl)cc1-c1cc(C)ncc1C(=O)Nc1nc2cnc(C3=CCC(O)CC3)nc2s1 (stereo not drawn)
IC50: < 100 nM
//
molecule: COc1cnc(Cl)cc1-c1cc(C)ncc1C(=O)Nc1nc2ncc(C3(O)CCC4(CC3)COC4)cc2s1
IC50: < 100 nM
//
molecule: COc1cnc(Cl)cc1-c1cc(C)ncc1C(=O)Nc1nc2ncc(-n3ccccc3=O)cc2s1
IC50: 100 to 500 nM
//
molecule: COc1cnc(Cl)cc1-c1cc(C)ncc1C(=O)Nc1nc2ncc(N3CCC(CO)CC3)cc2s1
IC50: < 100 nM
//
molecule: COc1cnc(Cl)cc1-c1cc(C)ncc1C(=O)Nc1nc2ncc(NC3CCN(S(C)(=O)=O)CC3)cc2s1
IC50: < 100 nM
//
molecule: COc1cnc(Cl)cc1-c1cc(C)ncc1C(=O)Nc1nc2ccc(C3=CCC(O)CC3)c(C#N)c2s1 (stereo not drawn)
IC50: > 1000 nM
//
molecule: COc1cnc(Cl)cc1-c1cnccc1C(=O)Nc1nc2ccc([C@H]3CC[C@H](O)CC3)nc2s1
IC50: > 1000 nM
